Entries and their in vitro cell killing Emax, NUGC4-claudin18.2 high expression cells (CellTiter-Glo)
Molecular target: human Claudin18.2 (human)
Assay: cell-based or functional assay
// response body must contain only the number

As a guide, the following entries are already answered.
Binder | Assay result
ADC-3 (antibody, human IgG1, kappa, V domains shown, compound 9-A coupled to sulfhydryl groups after TCEP reduction; mean drug loading n=2.51 per antibody; positions not given) VH: EVQLVESGGGLVQPGGSLRLSCAASGFTFSDYGIHWVRQAPGKGLEWIAYISRGSSTIYYADTVKGRFTISRDNAKNSLYLQMTSLRAEDTAVYYCARGGYDTRNAMDYWGQGTTVTVSS VL: DIVMTQSPDSLAVSLGERATISCKSSQSLLNSGNQKNYLAWYQQKPGQPPKLLIYGASTRASGVPDRFSGSGSGTDFTLTISSLQAEDVAIYHCQNDLYYPLTFGQGTKLEIKR | 78.7
ADC-5 (antibody, human IgG1, kappa, V domains shown, compound 9-A coupled to sulfhydryl groups after TCEP reduction; mean drug loading n=6.8 per antibody; positions not given) VH: EVQLVESGGGLVQPGGSLRLSCAASGFTFSDYGIHWVRQAPGKGLEWIAYISRGSSTIYYADTVKGRFTISRDNAKNSLYLQMTSLRAEDTAVYYCARGGYDTRNAMDYWGQGTTVTVSS VL: DIVMTQSPDSLAVSLGERATISCKSSQSLLNSGNQKNYLAWYQQKPGQPPKLLIYGASTRASGVPDRFSGSGSGTDFTLTISSLQAEDVAIYHCQNDLYYPLTFGQGTKLEIKR | 95.9

// next item, in vitro cell killing Emax, NUGC4-claudin18.2 high expression cells (CellTiter-Glo) requested
For the binder ADC-2 (antibody, human IgG1, kappa, V domains shown, compound 9-A coupled to sulfhydryl groups after TCEP reduction; mean drug loading n=7.1 per antibody; positions not given) VH: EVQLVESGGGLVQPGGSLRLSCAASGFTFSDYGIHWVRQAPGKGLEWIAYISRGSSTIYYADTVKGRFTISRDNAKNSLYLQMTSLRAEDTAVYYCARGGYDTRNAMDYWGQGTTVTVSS VL: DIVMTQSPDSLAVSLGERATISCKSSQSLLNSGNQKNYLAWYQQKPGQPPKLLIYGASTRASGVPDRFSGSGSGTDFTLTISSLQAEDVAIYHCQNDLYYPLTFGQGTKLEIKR , give its reported in vitro cell killing Emax, NUGC4-claudin18.2 high expression cells (CellTiter-Glo). 91.1
